Attribution: paper PMC7118210

- experimentSummary: Single-dose pharmacokinetics in dogs (plasma, UHPLC/MS/MS)
- Format: in vivo, Beagle dogs
- protocolConditions: male, Beagle, dog, plasma, po, 49.6 mg/kg
reportedEndpoint: Cmax (ng/mL)

smiles=C[C@@H]1O[C@@H](O[C@H]2[C@H](Oc3cc(O)c4c(c3)O[C@H](c3ccc(O)cc3)CC4=O)O[C@H](CO)[C@@H](O)[C@@H]2O)[C@H](O)[C@H](O)[C@H]1O valueobserved=56.6

* * *

- experimentSummary: Single-dose pharmacokinetics in rats (plasma, UHPLC/MS/MS)
- Format: in vivo, Sprague Dawley rats
- protocolConditions: female, Sprague Dawley, rat, plasma, po, 10.5 mg/kg
reportedEndpoint: Tmax (h)

molecule="C[C@@H]1O[C@@H](O[C@H]2[C@H](Oc3cc(O)c4c(c3)O[C@H](c3ccc(O)cc3)CC4=O)O[C@H](CO)[C@@H](O)[C@@H]2O)[C@H](O)[C@H](O)[C@H]1O [naringin, Naringin]" reportedendpoint=Tmax valueobserved=1.05
